Each recorded value in this set is attributed to ChEMBL document CHEMBL4043283.

Test: Tmax in BALB/c mouse at 10 mg/kg, po by LC-MS/MS analysis
Type: ADME, organism-based
Details: in vivo
property: Tmax

*Q* Determine from records and report Tmax for CN1CC[C@H](c2c(O)cc(O)c3c(=O)cc(/C=C/c4c(Cl)cccc4Cl)oc23)[C@H](O)C1
*A* 15 to 103 min

###

Assay: Ionization constant, pKa of compound by UV spectrophotometric analysis
Type: physicochemical
property: pKa
Numbers only.

*Q* For CN1CC[C@H](c2c(O)cc(O)c3c(=O)cc(/C=C/c4c(Cl)cccc4Cl)oc23)[C@H](O)C1 , write its pKa.
*A* 5.4

###

Test: Half life in monkey liver microsomes at 100 uM after 30 mins by LC-MS/MS analysis
Assay type: ADME, Macaca mulatta, microsome
Conditions: rhesus monkey
property: half-life at 100 µM (min)
Give bare numbers, in min.

*Q* Give the reported value of half-life at 100 µM for this record: CN1CC[C@H](c2c(O)cc(O)c3c(=O)cc(/C=C/c4c(Cl)cccc4Cl)oc23)[C@H](O)C1
*A* 25
